- tgt: GABA-A receptor
- assay procedure: 35S-TBPS binding assay (GABAA receptor binding ability assay)
- condition summary: rat cerebral cortex cell membrane, 5 μM GABA, 2 nM 35S-TBPS; read-out: IC50 on inhibiting the TBPS binding activity, 35S-TBPS bindng assay
- Experimental: 1. The cerebral cortex of male Sprague-Dawley rat was isolated. 2. […] 9. The protein concentration was measured by the bicinchoninic acid (BCA) method. […] 11. 40 μL of scintillation solution was added to each well, and the CPM value was read with TopCount. In the experiment, the CPM (counts per minute) value was read with TopCount. […] The IC50 of the compound was calculated according to the following 4-parameter nonlinear logic formula: Y=Bottom+(Top−Bottom)/(1+10^((Log IC50−X)*HillSlope)), […]
readout: pIC50
Remember the convention: pIC50 equals -log10 of concentration in molar.

Query block: Requested read-out: pIC50. Entry: C[C@@]1(O)CC[C@H]2[C@H](CC[C@@H]3[C@@H]2CC[C@@]2(C)[C@H]3[C@H](C3CC3)C[C@@H]2C(=O)Cn2nc(C#N)cc2C#N)C1
Result block: 7.55

Query block: Same question for CC[C@@H]1C[C@H](C(=O)Cn2nc(C#N)cc2C#N)[C@@]2(C)CC[C@H]3[C@@H](CC[C@@H]4C[C@](C)(O)CC[C@@H]43)[C@H]12 please.
Result block: 7.79

Query block: Same question for C[C@@]1(O)CC[C@H]2[C@H](CC[C@@H]3[C@@H]2CC[C@@]2(C)[C@H]3[C@@H]3C[C@@H]3[C@@H]2C(=O)Cn2ncc(C#N)c2C2CC2)C1 please.
Result block: 7.55

Query block: Same question for C[C@@H]1C[C@H](C(=O)Cn2nc(C#N)cc2C#N)[C@@]2(C)CC[C@H]3[C@@H](CC[C@@H]4C[C@](C)(O)CC[C@@H]43)[C@H]12 please.
Result block: 8.37

Query block: Same question for Cc1c(C#N)cnn1CC(=O)[C@H]1[C@H]2C[C@H]2[C@H]2[C@@H]3CC[C@@H]4C[C@](C)(O)CC[C@@H]4[C@H]3CC[C@@]21C please.
Result block: 7.81

Query block: Same question for C[C@@]1(O)CC[C@H]2[C@H](CC[C@@H]3[C@@H]2CC[C@@]2(C)[C@H]3[C@@H]3C[C@@H]3[C@@H]2C(=O)Cn2cc(Cl)cn2)C1 please.
Result block: 8.19

Query block: Same question for C[C@@H]1C[C@H](C(=O)Cn2cc(Cl)cn2)[C@@]2(C)CC[C@H]3[C@@H](CC[C@@H]4C[C@](C)(O)CC[C@@H]43)[C@H]12 please.
Result block: 8.02

Query block: Same question for C[C@@H]1C[C@H](C(=O)Cn2cc(C#N)cn2)[C@@]2(C)CC[C@H]3[C@@H](CC[C@@H]4C[C@](C)(O)CC[C@@H]43)[C@H]12 please.
Result block: 8.34

Query block: Same question for C[C@@]1(O)CC[C@H]2[C@H](CC[C@@H]3[C@@H]2CC[C@]2(C)C(C(=O)Cn4cc(C#N)cn4)C[C@@H](C4CC4)[C@@H]32)C1 (stereo partly shown) please.
Result block: 8.12

Query block: Same question for CC[C@@H]1C[C@H](C(=O)Cn2nnc(C)n2)[C@@]2(C)CC[C@H]3[C@@H](CC[C@@H]4C[C@](C)(O)CC[C@@H]43)[C@H]12 please.
Result block: 7.57
